target: hCB1 (Homo sapiens, UniProt P21554); test: bioSensAll ebBRET signaling profiling, hCB1; format: cell-based; parameters: host or cells: HEK293SL cells, transient PEI transfection; settings: Log [Compound] (M) -8.68787; single replicate values, FigS6a
Sequence (P21554 whole entry): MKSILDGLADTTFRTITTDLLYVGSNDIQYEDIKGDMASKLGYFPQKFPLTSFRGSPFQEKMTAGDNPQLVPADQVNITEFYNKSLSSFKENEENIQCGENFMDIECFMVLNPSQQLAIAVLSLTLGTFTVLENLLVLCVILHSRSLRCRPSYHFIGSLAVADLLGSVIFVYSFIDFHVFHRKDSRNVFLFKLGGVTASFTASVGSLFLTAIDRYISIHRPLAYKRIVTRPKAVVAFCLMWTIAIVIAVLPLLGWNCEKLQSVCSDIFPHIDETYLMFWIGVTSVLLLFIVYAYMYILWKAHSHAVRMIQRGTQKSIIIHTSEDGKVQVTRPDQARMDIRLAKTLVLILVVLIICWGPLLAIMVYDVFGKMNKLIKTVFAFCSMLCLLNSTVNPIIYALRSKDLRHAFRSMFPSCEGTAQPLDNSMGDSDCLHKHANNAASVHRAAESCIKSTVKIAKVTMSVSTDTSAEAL
Rule: rule met for Gi1 hCB1 not less than 1, rule not met for anything less.

Cc1cc(C(=O)N(C)C(c2ccccc2)c2ccco2)nn1-c1cccc(C(F)(F)F)c1 (centres unmarked) = rule met
Cn1nc(-c2nnc(C(C)(C)Oc3ccc(Cl)cc3)o2)c2ccccc2c1=O = rule not met
Brc1cc2c(cc1Cc1noc(-c3cnn(CC4CC4)c3)n1)OCO2 = rule not met
Cc1cc(C(=O)NC(c2ccco2)c2ccco2)nn1-c1cccc(C(F)(F)F)c1 = rule met
Cc1nc(CC2CC2)oc1-c1nc(Cc2cc3c(cc2Br)OCO3)no1 = rule not met
Cc1nn(Cc2ccc(Cl)cc2)c(C)c1C(=O)OCC1CSc2ccccc2O1 (centres unmarked) = rule not met
Cc1cc(C(=O)N(C)C(c2ccco2)c2ccco2)nn1-c1cccc(C(F)(F)F)c1 = rule met
Cc1cc(C(=O)NC(c2ccccc2)c2ccco2)nn1-c1cccc(C(F)(F)F)c1 (centres unmarked) = rule met
CC(=O)C(c1cccs1)N(C)C(=O)c1cc(C)n(-c2cccc(C(F)(F)F)c2)n1 (centres unmarked) = rule met
COC(=O)[C@@H]1[C@@H]2CC[C@@H]2CN1C(=O)c1cc(C)n(-c2cccc(C(F)(F)F)c2)n1 = rule not met
COC(=O)[C@@H]1[C@@H]2CCC[C@@H]2CN1C(=O)c1cc(C)n(-c2cccc(C(F)(F)F)c2)n1 = rule met
Cc1cc(C(=O)NC(c2ccccc2)c2ccco2)nn1-c1cccc(C#N)c1 (centres unmarked) = rule met
COC(=O)C(NC(=O)c1cc(C)n(-c2cccc(F)c2)n1)c1cccs1 (centres unmarked) = rule not met
Cc1cc(C(=O)N2CC3(CCC3)[C@@H]2[C@H]2CCCO2)nn1-c1cccc(C(F)(F)F)c1 (single isomer, unassigned) = rule met
COc1cccc(C(NC(=O)c2cc(C)n(-c3cccc(C(F)(F)F)c3)n2)c2ccco2)c1 (centres unmarked) = rule met
Cc1c(C(=O)OCC2CSc3ccccc3O2)cnn1Cc1ccccc1 (centres unmarked) = rule not met
Cn1nc(-c2nnc(C(C)(C)Oc3ccc(C(F)(F)F)cc3)o2)c2ccccc2c1=O = rule not met

---

system: P-gp (human MDR1); assay: in vitro; conditions: dog, MDCK-MDR1, pH 7.4
Listed below: efflux ratio at 90 min, 10 μM values for each entry.
measurement.label: efflux ratio at 90 min, 10 μM

COC(=O)[C@@](C)(NC(=O)c1cc(C)n(-c2cccc(C(F)(F)F)c2)n1)c1cccs1 = 1.3
C[C@H]1O[C@@H](O[C@H]2[C@@H](O)C[C@H](O[C@H]3[C@@H](O)C[C@H](O[C@H]4CC[C@@]5(C)[C@H](CC[C@@H]6[C@@H]5C[C@@H](O)[C@]5(C)[C@@H](C7=CC(=O)OC7)CC[C@]65O)C4)O[C@@H]3C)O[C@@H]2C)C[C@H](O)[C@@H]1O = 7.3

---

molecular target: hCB1 (Homo sapiens, UniProt P21554); assay: bioSensAll ebBRET signaling profiling, hCB1; type: cell-based; set-up: host or cells: HEK293SL cells, transient PEI transfection; conditions: read-out: EC50 [95% CI]; hCB1 Gi1
pEC50: −log10 of the molar value.
Here the recorded pEC50 is given for each entry.
measurement.label: pEC50

Cc1cc(C(=O)NC(c2ccco2)c2ccco2)nn1-c1cccc(C(F)(F)F)c1 [‘1090] = 7.45
Cc1cc(C(=O)NC(c2ccccc2)c2ccco2)nn1-c1cccc(C#N)c1 (centres unmarked) [‘12565] = 6.98
Cc1cc(C(=O)NC(c2ccccc2)c2ccco2)nn1-c1cccc(C(F)(F)F)c1 (centres unmarked) [‘1081] = 6.82
COC(=O)[C@@](C)(NC(=O)c1cc(C)n(-c2cccc(C(F)(F)F)c2)n1)c1cccs1 [‘1350] = 9.64
COC(=O)[C@@H]1[C@@H]2CC[C@@H]2CN1C(=O)c1cc(C)n(-c2cccc(C(F)(F)F)c2)n1 [‘6448] = 6.46

---

target: hCB1 (Homo sapiens); assay: bioSensAll ebBRET signaling profiling, hCB1; type: cell-based; parameters: host or cells: HEK293SL cells, transient PEI transfection; conditions: Log [Compound] (M) -11.0177; single replicate values, FigS6a
measurement.label: Gi1 hCB1

Cn1nc(-c2nnc(C(C)(C)Oc3ccc(C(F)(F)F)cc3)o2)c2ccccc2c1=O = -5.413
Cc1cc(C(=O)N2CC3(CCC3)[C@H]2[C@H]2CCCO2)nn1-c1cccc(C(F)(F)F)c1 = 1.137
Cc1cc(C(=O)NC(c2ccccc2)c2ccco2)nn1-c1cccc(C(F)(F)F)c1 (stereo not drawn) = 1.214
COC(=O)[C@@H]1[C@@H]2CCC[C@@H]2CN1C(=O)c1cc(C)n(-c2cccc(Cl)c2)n1 (racemic) = 0.9524
COC(=O)[C@@H]1[C@@H]2CC[C@@H]2CN1C(=O)c1cc(C)n(-c2cccc(C(F)(F)F)c2)n1 = -0.281
Cc1cc(C(=O)N2CC3(CCC3)[C@@H]2[C@H]2CCCO2)nn1-c1cccc(C(F)(F)F)c1 (single isomer, unassigned) = 0.5053
Cc1nn(Cc2ccc(Cl)cc2)c(C)c1C(=O)OCC1CSc2ccccc2O1 (stereo not drawn) = -0.8518
Cc1cc(C(=O)NC(c2ccco2)c2ccco2)nn1-c1cccc(C(F)(F)F)c1 = 2.633
Cc1cc(C(=O)N(C)C(c2ccccc2)c2ccco2)nn1-c1cccc(C(F)(F)F)c1 (stereo not drawn) = -0.3581

---

target: CB1 (rCB1) (Rattus norvegicus, UniProt P20272); experiment: Single-point radioligand displacement screen; assay type: binding; settings: 10 µM, 1 µM or 300 nM by cell colour (not visible)
Sequence (P20272 whole entry): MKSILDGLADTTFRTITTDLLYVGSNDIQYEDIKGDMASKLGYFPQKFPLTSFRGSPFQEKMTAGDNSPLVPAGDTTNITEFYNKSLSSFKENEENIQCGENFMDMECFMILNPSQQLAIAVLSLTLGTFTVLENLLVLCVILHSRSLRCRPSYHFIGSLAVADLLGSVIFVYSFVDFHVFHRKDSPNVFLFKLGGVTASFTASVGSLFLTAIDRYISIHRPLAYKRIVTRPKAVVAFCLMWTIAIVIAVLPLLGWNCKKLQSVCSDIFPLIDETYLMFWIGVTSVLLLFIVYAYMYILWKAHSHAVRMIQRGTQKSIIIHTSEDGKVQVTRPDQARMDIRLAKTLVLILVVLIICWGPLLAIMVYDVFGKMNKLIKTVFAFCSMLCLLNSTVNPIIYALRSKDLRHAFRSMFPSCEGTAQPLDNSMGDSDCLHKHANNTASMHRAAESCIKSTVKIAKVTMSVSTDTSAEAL
With a cut-off of 20%, any % 1H-CP-55,940 displacement (mean) from single point screen strictly below it is called class 1; any % 1H-CP-55,940 displacement (mean) from single point screen meeting it or above is called class 0.

CCOC(=O)CCC(OC(=O)c1nc(C)n(-c2ccccc2)n1)c1ccccc1 (stereo not drawn) [compound 11070] = class 0
Cn1nc(-c2nnc(C(C)(C)Oc3ccc(C(F)(F)F)cc3)o2)c2ccccc2c1=O [‘2153] = class 0
O=C(OCc1ncnn1-c1ccccc1)c1csc(Cc2ccccc2F)n1 [compound 67565] = class 1
COC(=O)C(NC(=O)c1cc(C)n(-c2cccc(C#N)c2)n1)c1ccsc1 (stereo not drawn) [‘31604] = class 0
N#CCCn1ncc(C(=O)N2CCC(F)(c3cc(F)cc(F)c3)C2)c1-c1ccccc1 (stereo not drawn) [compound 34734] = class 1
CCCCc1nc(C)c(Cc2nc(Cc3ccc4c(c3)OCO4)no2)s1 [7019_27] = class 0
O=C(OCC1CSc2ccccc2O1)c1cn(Cc2cccc(F)c2)nn1 (stereo not drawn) [compound 23346] = class 0
O=C(OCC1CSc2ccccc2O1)c1cnn(Cc2ccccc2)c1Br (stereo not drawn) [7800_27] = class 0
COC(=O)C(NC(=O)c1coc(C2CCOCC2)n1)c1cccs1 (stereo not drawn) [compound 19213] = class 1
Cc1cc(C(=O)N2CC3(CCC3)C2C2CCOCC2)nn1-c1cccc(C(F)(F)F)c1 (stereo not drawn) [10_19] = class 0
CCOc1cncc(NC(=O)c2cc(C)n(-c3cccc(Cl)c3)n2)n1 [compound 88160] = class 1
Cc1nn(Cc2ccccc2Cl)c(C)c1C(=O)OCC1CSc2ccccc2O1 (stereo not drawn) [7800_28] = class 0
CCCC1CN(C(=O)c2cc(Oc3cccc(Br)c3)ccn2)CCO1 (stereo not drawn) [compound 83628] = class 1
COC(=O)c1cc(C(=O)N2CCc3ccc(Cl)cc3C2)cc([N+](=O)[O-])c1 [compound 25719] = class 0
Cc1c(C(=O)OCC2CSc3ccccc3S2)cnn1Cc1ccccc1 (stereo not drawn) [7800_26] = class 0
COC1CCn2cc(C(=O)NCC(Cc3ccccc3)c3ccccc3)nc2C1 (stereo not drawn) [compound 96198] = class 1
Cc1nc(CC2CC2)oc1-c1nc(-c2ccc3c(c2)OCO3)no1 [compound 5962] = class 1
O=C(NCC1CSc2ccccc2O1)c1ncc(Cc2ccccc2)o1 (stereo not drawn) [compound 5752] = class 0
Cc1ccc(OCCC(=O)N2CC3CCCN3c3ccccc32)c(C)c1 (stereo not drawn) [compound 26701] = class 0
COC(=O)C(NC(=O)c1cc(C)n(-c2cccc(C(F)(F)F)c2)n1)c1cccs1 (stereo not drawn) [‘60154] = class 0
Fc1ccc(C(F)(F)c2noc(-c3cnnn3-c3cccc(F)c3)n2)cc1 [compound 9217] = class 0
COC(=O)[C@@H]1[C@@H]2CCC[C@@H]2CN1C(=O)c1nn(-c2cccc(C(F)(F)F)c2)c2c1CCC2 [10_17] = class 0
Cc1c(C(=O)NCC2CSc3ccccc3O2)nnn1Cc1ccc(F)cc1 (stereo not drawn) [compound 22139] = class 1
Cc1cc(C(=O)Nc2ccnn2-c2cccc(Cl)c2)nn1[C@H](C)C1CC1 [‘7902] = class 0
O=C(NCC1CSc2ccccc2O1)c1cn(Cc2ccccc2)nn1 (stereo not drawn) [compound 78184] = class 0
Cc1c(C(=O)OCC2CN(c3ccccc3)C(=O)O2)cnn1Cc1ccccc1 (stereo not drawn) [compound 5081] = class 0
O=C(CCc1ccccc1)c1cn(C2(c3ccc(F)cc3)CCOCC2)nn1 [‘7337] = class 0
COC(=O)C(OC(=O)c1cc(C)n(-c2ccc(F)cc2)n1)c1ccccc1 (stereo not drawn) [compound 62406] = class 1
N#Cc1cccc(OCc2ccoc2C(=O)OCC2CSc3ccccc3O2)c1 (stereo not drawn) [compound 35424] = class 0
Cc1nc(CC2CC2)oc1-c1nc(Cc2ccc3c(c2)OCO3)no1 [compound 97058] = class 1
Cn1nc(CNC(=O)C(C)(C)Oc2ccc(Cl)cc2)c2ccccc2c1=O [0450_26] = class 1
N#CCCn1ncc(C(=O)OCC2CSc3ccccc3O2)c1-c1ccccc1 (stereo not drawn) [compound 0372] = class 0
Cn1nc(Cc2nnc(C(C)(C)Oc3ccc(Cl)cc3)o2)c2ccccc2c1=O [0450_25] = class 1
COC(=O)C(NC(=O)c1ccc(-c2ccccc2F)o1)c1ccsc1 (stereo not drawn) [compound 07099] = class 1
CC1C(C(F)(F)F)CCN1C(=O)c1csc(N(C)c2ccccc2)n1 (stereo not drawn) [compound 27005] = class 0
Cc1nc(CC2CC2)oc1-c1nc(Cc2cc(Br)c3c(c2)OCO3)no1 [compound 53217] = class 1
